Please go through the items and note down their composite z-score.
System: PRMT1 (protein arginine N-methyltransferase 1)
Experiment: small molecules binding arginine methyltransferase PRMT1 – biochemical, small-molecule microarray, 635 nm fluorescence, primary screen (AID 1088);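 further: binding of Prmt1 protein to compounds spotted on small-molecule microarray slides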
Conditions: higher = more signal
Number, no unit, nothing else.

Input line: Please report the recorded composite z-score for `COC(=O)C(CC#Cc1ccc2c(c1)[C@]1(C(=O)N2)[C@H](C(=O)N2CCc3cc(OC)c(OC)cc3C2)[C@H]2C(=O)O[C@H](c3ccccc3)[C@H](c3ccccc3)N2[C@@H]1c1ccccc1OCCO)C(=O)OC` .
Output line: 1.54

Input line: Please report the recorded composite z-score for `CC(C)N1C(=O)C[C@@](C(=O)NCCN2CCOCC2)(c2ccc([N+](=O)[O-])cc2)[C@H]1c1ccc(CO)cc1` .
Output line: 0.266

Input line: Please report the recorded composite z-score for `CCCCCCc1nc(-c2ccc(-c3ccc(Cl)c(Cl)c3)o2)cc2c1[Si](C(C)C)(C(C)C)OC2` .
Output line: -0.849

Input line: Please report the recorded composite z-score for `CCCC=C(CCC)[C@@H](NC(=O)c1ccc(C(F)(F)F)cc1)c1ccc(C(F)(F)F)cc1` .
Output line: 1.41

Input line: Please report the recorded composite z-score for `COC(=O)[C@H](Cc1ccccc1)N1CC2=CCCC=C[C@@H]2[C@H]1[C@H](O)Cc1ccccc1` .
Output line: 0.438

Input line: Please report the recorded composite z-score for `COC(=O)[C@@]1(Cc2ccc(OC)cc2)[C@H]2c3cc(C(=O)N4CCCC4)n(Cc4ccc(Cl)c(C(F)(F)F)c4)c3C[C@H]2CN1C(=O)c1ccccc1` .
Output line: 1

Input line: Please report the recorded composite z-score for `O=C1[C@@H]2[C@@H](CC(COc3ccccc3)=C([C@H](O)CCc3ccccc3)[C@@H]2CO)C(=O)N1Cc1ccccc1` .
Output line: 1.08

Input line: Please report the recorded composite z-score for N#Cc1ccc(C(O)C2C=CC3C(=O)NC(=O)C3N2Nc2ccc(Cl)cc2Cl)cc1 (stereo not drawn) .
Output line: 0.156

Input line: Please report the recorded composite z-score for `C=C(CCCC)/C(=C/C[C@H](OC(=O)c1ccncc1)c1ccccc1OCCO)c1cc(C(=O)OC)ccc1OC` .
Output line: 1.34

Input line: Please report the recorded composite z-score for `O=C1O[C@H](c2ccccc2)[C@H](c2ccccc2)N2[C@H]1[C@@H](C(=O)N1CCN(c3ncccn3)CC1)[C@]1(C(=O)Nc3ccc(C#CCCO)cc31)[C@H]2c1ccc(O)cc1` .
Output line: 0.738

Input line: Please report the recorded composite z-score for `NC(=O)NCC#Cc1ccc2c(c1)[C@]1(C(=O)N2)[C@H](c2ccc(OCCO)cc2)N2[C@H](c3ccccc3)[C@H](c3ccccc3)OC(=O)[C@H]2[C@@H]1C(=O)O` .
Output line: -0.541

Input line: Please report the recorded composite z-score for C=CC1c2cc(O)c(OC)cc2CCN1C (stereo not drawn) .
Output line: -0.648

Input line: Please report the recorded composite z-score for COc1ccc(C(O)C2C=CC3C(=O)N(C)C(=O)C3N2N(c2ccccc2)c2ccccc2)cc1 (stereo not drawn) .
Output line: 0.923

---

Test: compound effects on multiple myeloma cell viability – MM1S, calcein-AM fluorescence, 48 h, basal, profiling panel (AID 1165);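 further: viability of MM1S multiple myeloma cells under basal unstimulated conditions; test concentration not given here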
Settings: higher = more signal
Where z-score equals or exceeds -0.5, the correct label is yes; where it does not, the label is no.

Input line: I'd appreciate it if you could say whether [N-]=[N+]=Nc1ccccc1C[C@@]1(C(=O)NCC(O)CO)N=C(c2ccc(OCCCO)cc2)O[C@@H]1c1ccccc1 (stereo partly specified) has z-score at least equal to -0.5.
Output line: yes

Input line: I'd appreciate it if you could say whether `CC(C)C(=C=CC[C@H](O)c1ccccc1OCCO)C[C@H](O)c1cc(Cl)cc(Cl)c1O` has z-score at least equal to -0.5.
Output line: no

Input line: I'd appreciate it if you could say whether `C=CCNC(=O)[C@H]1[C@@H]2C(=O)O[C@@H](c3ccccc3)[C@@H](c3ccccc3)N2[C@@H](c2ccc(OCCO)cc2)[C@]12C(=O)Nc1ccccc12` has z-score at least equal to -0.5.
Output line: yes

Input line: I'd appreciate it if you could say whether `NC(=O)NCC#Cc1ccc2c(c1)[C@]1(C(=O)N2)[C@H](c2ccc(OCCO)cc2)N2[C@H](c3ccccc3)[C@H](c3ccccc3)OC(=O)[C@H]2[C@@H]1C(=O)O` has z-score at least equal to -0.5.
Output line: no

Input line: I'd appreciate it if you could say whether `COCCOC(=O)N1C(=O)[C@@]2(c3ccccc31)[C@H](c1ccc(O)cc1)N1[C@H](c3ccccc3)[C@H](c3ccccc3)OC(=O)[C@H]1[C@@H]2C(=O)N1CCCCCCC1` has z-score at least equal to -0.5.
Output line: yes

Input line: I'd appreciate it if you could say whether `O=C(NCc1ccccc1)[C@@H]1c2ccccc2C(=O)N(Cc2cc(C(F)(F)F)cc(C(F)(F)F)c2)[C@H]1c1ccc(CO)cc1` has z-score at least equal to -0.5.
Output line: yes
